Values from the supplement of paper PMC12632987

- subject_of_test: GABARAP, O95166
- Sequence (O95166 whole entry, the tested form may be a part): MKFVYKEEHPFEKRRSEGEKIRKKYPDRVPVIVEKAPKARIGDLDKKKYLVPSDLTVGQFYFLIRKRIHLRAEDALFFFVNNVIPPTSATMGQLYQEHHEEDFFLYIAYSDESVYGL
- protocol_description: median log2 fold change of GCK-ALFA target abundance (FLAG IP / Myc IP barcode read proportion) (log2 ratio); each designed protein is fused to an ALFA-tag nanobody in HEK293 cells to bring the named protein to FLAG-tagged glucokinase (GCK); Myc marks an untargeted standard; higher = target protein stabilised (more abundant)
- particulars: target protein: 3xFLAG-MCP-GCK-ALFA reporter; HEK293 landing pad (RPLP)
Whole data set: some 4,500 sequences, median “median log2 fold change of GCK-ALFA target abundance (FLAG IP / Myc IP barcode read proportion)” near 0.078, cut for the lowest 2% near -0.6. The entries come from a sample that favours the lowest values as a whole.
Please note: 1 (yes) applies when median log2 fold change is -0.07 or greater, and 0 (no) applies otherwise.

{"binder": "GBRAP_74_6519 (protein) EEELLAALEAAAAAGDAATAVALARRIVAEGSLEAVERAARIMVAFVERHADALSPEELEAVADALAELADELMLRGGDSEVVLAVARAAVALEERRRAL", "answer_label": "0 (no)"}
{"binder": "GBRAP_160_4409 (protein) SEELKKTAERILEAVKEELELLLELGEIDPEAAAGLLEGTILLEVFEDDSLTEEQEEKLEELAEELAEELRKRLEEEGKMTEEIKEELLKLAKEGLEKII", "answer_label": "0 (no)"}
{"binder": "GBRAP_160_4407 (protein) SEALKETAERILEAVKDELDLLLELGKIDPKAAAGLLEGTVLLEMFEDDSLTEEQEEKLEELAERLAERLEKLLKEEGEMTEEIRKELLEEAKRGLEEII", "answer_label": "0 (no)"}
{"binder": "GBRAP_11_2819 (protein) MDEVVKELIEVLKKLAEAADKYLKEDVGDEELLKKIEELAKKALELAKKLNDPAVIREAQAILDTVEEAKKDPANREQYVANARAGARTLLANLEEEAEE", "answer_label": "1 (yes)"}
{"binder": "GBRAP_43_5749 (protein) DEELVAGAVEFTLLAAEDPSISPETVLRAFKATLDLIADTGVRLEEELVAAAAAVAKRLSPEQVEALIEHIKELAAASPEVKETFEAAEEVLRAELAKRR", "answer_label": "1 (yes)"}
{"binder": "GBRAP_160_4778 (protein) SEKVEELKKSIEEAKEEILESIDTESPEETIIVVKGETGLILAEAYELEIDNDELEDALDEIGDELIEEMKKNKNASKEELKKIVEEYTEKALKKIEELT", "answer_label": "1 (yes)"}
{"binder": "GBRAP_125_3111 (protein) DMEEVLEALAIVLRALGFDDDEIEEALELARRYGIKGTMIAVALAEGYEEVADLLEKLTEEEVKQALLETAAAIKANPELTPEEVKELLEEVLKKLLAAS", "answer_label": "0 (no)"}
{"binder": "GBRAP_160_4000 (protein) MEEIEELKEEIEEIIDETIAAMEGLTPEERLTLVRGMVGEIIQLVEDSPAVSDEAEDEIAELGDELVEEVEANRDAPLEVWRELLERFLEEIKKILDKEE", "answer_label": "0 (no)"}
{"binder": "GBRAP_80_6763 (protein) MMEELEEALEELSELLPELAEELRATVEALLELGVPVEDLLRLLKALVELAKLDKEKAEAILREFIAEVNEAIARGDLEEARALVIDAESDALLEVEELE", "answer_label": "1 (yes)"}
